EXPERIMENTAL_SYSTEM: GHSR1a (Homo sapiens)
Construct: expressed in transfected cells; host or cells: HEK293
Sequence (Q92847 whole entry): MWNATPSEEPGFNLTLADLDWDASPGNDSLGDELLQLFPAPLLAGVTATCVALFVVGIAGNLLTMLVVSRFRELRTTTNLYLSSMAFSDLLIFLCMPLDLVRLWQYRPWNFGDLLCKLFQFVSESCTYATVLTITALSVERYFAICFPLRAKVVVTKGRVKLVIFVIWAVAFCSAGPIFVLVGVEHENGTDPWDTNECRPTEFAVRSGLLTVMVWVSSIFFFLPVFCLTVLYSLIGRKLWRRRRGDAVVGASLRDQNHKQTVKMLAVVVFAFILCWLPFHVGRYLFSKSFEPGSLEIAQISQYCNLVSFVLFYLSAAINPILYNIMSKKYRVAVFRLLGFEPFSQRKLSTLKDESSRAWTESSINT
EXPERIMENTAL_DETAILS: Calcium FLIPR assay, GHSR-1a agonism
Assay type: cell-based
Design: unit not given here
ASSAY_CONDITIONS: HEK293/GHSR1a cells
MEASURED_ATTRIBUTE: Emax
Number only, no unit.

[[record]]
compound = "CN1CCC(N(C)C(=O)NC(C#N)c2ccc(-c3cncc(C#N)c3)c(Cl)c2Cl)CC1 (centres unmarked) [Compound H0666]"
experimental_system = "GHSR1a (Homo sapiens)"
quantitative_readout = 4927

[[record]]
compound = "COc1cccc(-c2ccc(C(C)NC(=O)N(C)C3CCN(C)CC3)c(Cl)c2Cl)c1 (centres unmarked) [Compound H0606]"
experimental_system = "GHSR1a (Homo sapiens)"
quantitative_readout = 2336

[[record]]
compound = "CC(NC(=O)N(C)C1CCN(C)CC1)c1ccc(-c2ccccc2)c(Cl)c1Cl (centres unmarked) [Compound H0509]"
experimental_system = "GHSR1a (Homo sapiens)"
quantitative_readout = 1790


Ask: // Emax lookup, key: CC(NC(=O)N(C)C1CCN(C)CC1)c1ccc(C#CC2CC2)c(Cl)c1Cl (single isomer, unassigned) [Compound H0818]
Reply: 1915

Ask: // Emax lookup, key: C#Cc1ccc(C(C)NC(=O)N(O)C2CCN(C)CC2)c(Cl)c1Cl (centres unmarked) [Compound H0745]
Reply: 2391

Ask: // Emax lookup, key: CC(NC(=O)N(C)C1CCN(C)CC1)c1ccc(-c2nccnn2)c(Cl)c1Cl (centres unmarked) [Compound H0793]
Reply: 3501

Ask: // Emax lookup, key: CN1CCC(N(O)C(=O)NC(CC2CC2)c2ccc(-c3cnccn3)c(Cl)c2Cl)CC1 (centres unmarked) [Compound H0761]
Reply: 2907

Ask: // Emax lookup, key: C=Cc1cncc(-c2ccc(C(C)NC(=O)N(C)C3CCN(C)CC3)c(Cl)c2Cl)c1 (centres unmarked) [Compound H0706]
Reply: 2111

* * *

The entries below are paired with their reported pEC50.
EXPERIMENTAL_SYSTEM: GHSR1a (Homo sapiens)
EXPERIMENTAL_DETAILS: Calcium FLIPR assay, GHSR-1a agonism
ASSAY_CONDITIONS: HEK293/GHSR1a cells
Notebook: values listed as pEC50 are -log10 of the concentration (mol/L).

Some entries whose results are on file:
[[record]]
molecule = "CC(NC(=O)N(C)C1CCN(C)CC1)c1ccc(-c2cncc(Br)c2)c(Cl)c1Cl (stereo not shown)"
measured_attribute = "pEC50"
quantitative_readout = 8.30

[[record]]
molecule = "CC(=O)Nc1cncc(-c2ccc(C(C)NC(=O)N(C)C3CCN(C)CC3)c(Cl)c2Cl)c1 (stereo not shown)"
measured_attribute = "pEC50"
quantitative_readout = 6.66

[[record]]
molecule = "CC(NC(=O)N(C)C1CCN(C)CC1)c1ccc(C#Cc2cscn2)c(Cl)c1Cl (stereo not shown)"
measured_attribute = "pEC50"
quantitative_readout = 7.21


Ask: What measured pEC50 is associated with COc1ncc(-c2ccc(C(C)NC(=O)N(C)C3CCN(C)CC3)c(Cl)c2Cl)cn1 (stereo not shown) on GHSR1a (Homo sapiens)?
Reply: 7.19

Ask: What measured pEC50 is associated with CC(NC(=O)N(C)C1CCN(C)CC1)c1ccc(-c2cnc(O)nc2)c(Cl)c1Cl (stereo not shown) on GHSR1a (Homo sapiens)?
Reply: 5.74

Ask: What measured pEC50 is associated with CC(NC(=O)N(C)C1CCN(C)CC1)c1ccc(-c2ccc(C3CC3)cn2)c(Cl)c1Cl (stereo not shown) on GHSR1a (Homo sapiens)?
Reply: 7.29

Ask: What measured pEC50 is associated with CC(NC(=O)N(C)C1CCN(C)CC1)c1ccc(-c2c[nH]nn2)c(Cl)c1Cl (stereo not shown) on GHSR1a (Homo sapiens)?
Reply: 7.60

Ask: What measured pEC50 is associated with CN1CCC(N(O)C(=O)NC(CC2CC2)c2ccc(-c3cnccn3)c(Cl)c2Cl)CC1 (single isomer, unassigned) [Compound H0781] on GHSR1a (Homo sapiens)?
Reply: 6.38

Ask: What measured pEC50 is associated with CC(NC(=O)N(C)C1CCN(C)CC1)c1ccc2c(NC3CC3)noc2c1 (stereo not shown) on GHSR1a (Homo sapiens)?
Reply: 5.52

Ask: What measured pEC50 is associated with CC(NC(=O)N(C)C1CCN(C)CC1)c1ccc(C#CCc2cccs2)c(Cl)c1Cl (stereo not shown) on GHSR1a (Homo sapiens)?
Reply: 7.05
